FYI, the data here is from ChEMBL document CHEMBL1773060.

- TARGET ENTITY: NAD-dependent protein deacetylase sirtuin-1 (Homo sapiens)
- TEST DETAILS: Inhibition of human recombinant GST-tagged SIRT1 at 50 uM after 4 hrs by homogeneous fluorescent deacetylase assay
ASSAY METRIC: inhibition (%)

Worked examples, 2 molecules total:
Cc1ccc(-c2nc3c(N)ncnc3n2[C@@H]2O[C@H](COP(=O)(O)OP(=O)([O-])OC[C@H]3O[C@@H]([n+]4cccc(C(N)=O)c4)[C@H](O)[C@@H]3O)[C@@H](O)[C@H]2O)cc1 20
NC(=O)c1ccc[n+]([C@@H]2O[C@H](COP(=O)([O-])OP(=O)(O)OC[C@H]3O[C@@H](n4c(-c5ccco5)nc5c(N)ncnc54)[C@H](O)[C@@H]3O)[C@@H](O)[C@H]2O)c1 16

I. NC(=O)c1ccc[n+]([C@@H]2O[C@H](COP(=O)([O-])OP(=O)(O)OC[C@H]3O[C@@H](n4c(-c5ccccc5)nc5c(N)ncnc54)[C@H](O)[C@@H]3O)[C@@H](O)[C@H]2O)c1
II. NC(=O)c1ccc[n+]([C@@H]2O[C@H](COP(=O)([O-])OP(=O)(O)OC[C@H]3O[C@@H](n4c(-c5ccc(Cl)cc5)nc5c(N)ncnc54)[C@H](O)[C@@H]3O)[C@@H](O)[C@H]2O)c1
Pick one, I or II : lowest reported inhibition. Refer to your chosen item by its label in the answer.
I

====

- TARGET ENTITY: NAD-dependent protein deacetylase sirtuin-1 (Homo sapiens)
- Sequence (whole entry): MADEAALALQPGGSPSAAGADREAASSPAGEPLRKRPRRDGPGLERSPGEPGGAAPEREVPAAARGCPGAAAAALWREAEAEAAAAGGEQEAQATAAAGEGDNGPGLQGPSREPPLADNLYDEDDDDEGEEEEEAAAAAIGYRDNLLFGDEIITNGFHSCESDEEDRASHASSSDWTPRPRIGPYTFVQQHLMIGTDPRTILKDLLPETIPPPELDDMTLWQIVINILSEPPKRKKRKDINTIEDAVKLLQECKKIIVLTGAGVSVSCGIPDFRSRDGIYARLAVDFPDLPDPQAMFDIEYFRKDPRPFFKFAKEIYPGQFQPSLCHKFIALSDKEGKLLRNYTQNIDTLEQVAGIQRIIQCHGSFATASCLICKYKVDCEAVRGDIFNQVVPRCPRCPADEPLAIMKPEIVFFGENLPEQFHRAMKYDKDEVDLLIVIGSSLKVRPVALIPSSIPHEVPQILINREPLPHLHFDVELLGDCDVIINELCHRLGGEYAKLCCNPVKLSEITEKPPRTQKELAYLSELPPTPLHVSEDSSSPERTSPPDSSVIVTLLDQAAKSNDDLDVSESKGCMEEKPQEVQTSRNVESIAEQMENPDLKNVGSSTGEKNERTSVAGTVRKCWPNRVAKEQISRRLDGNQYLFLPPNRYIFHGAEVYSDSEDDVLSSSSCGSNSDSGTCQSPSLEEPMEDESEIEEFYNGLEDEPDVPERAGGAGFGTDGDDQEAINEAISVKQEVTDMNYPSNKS
- TEST DETAILS: Inhibition of human recombinant GST-tagged SIRT1 at 50 uM after 4 hrs by homogeneous fluorescent deacetylase assay
ASSAY METRIC: inhibition (%)

a. NC(=O)c1ccc[n+]([C@@H]2O[C@H](COP(=O)([O-])OP(=O)(O)OC[C@H]3O[C@@H](n4c(Br)nc5c(N)ncnc54)[C@H](O)[C@@H]3O)[C@@H](O)[C@H]2O)c1
b. COc1ccc(-c2nc3c(N)ncnc3n2[C@@H]2O[C@H](COP(=O)(O)OP(=O)([O-])OC[C@H]3O[C@@H]([n+]4cccc(C(N)=O)c4)[C@H](O)[C@@H]3O)[C@@H](O)[C@H]2O)cc1
From the recorded data, which exceeds the other in inhibition: a or b ? Refer to your chosen item by its label in the answer.
a
(a: 31%, b: 18%)

====

- TARGET ENTITY: NAD-dependent protein deacetylase sirtuin-2 (Homo sapiens) (UniProt Q8IXJ6)
- Sequence (whole entry): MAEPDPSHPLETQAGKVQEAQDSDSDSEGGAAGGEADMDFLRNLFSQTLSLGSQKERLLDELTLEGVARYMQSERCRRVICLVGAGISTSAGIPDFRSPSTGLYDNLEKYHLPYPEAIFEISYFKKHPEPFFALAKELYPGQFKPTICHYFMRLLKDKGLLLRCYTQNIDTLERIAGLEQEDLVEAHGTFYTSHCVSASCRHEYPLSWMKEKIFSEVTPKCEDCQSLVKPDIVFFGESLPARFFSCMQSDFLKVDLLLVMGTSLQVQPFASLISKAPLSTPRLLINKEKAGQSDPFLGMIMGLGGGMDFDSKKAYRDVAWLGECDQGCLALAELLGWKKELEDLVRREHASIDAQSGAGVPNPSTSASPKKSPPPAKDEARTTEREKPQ
- TEST DETAILS: Inhibition of human recombinant N-terminally His6-tagged SIRT2 at 50 uM after 4 hrs by homogeneous fluorescent deacetylase assay
ASSAY METRIC: inhibition (%)

P. Nc1ncnc2c1nc(Br)n2[C@@H]1O[C@H](CO)[C@@H](O)[C@H]1O
Q. NC(=O)c1ccc[n+]([C@@H]2O[C@H](COP(=O)([O-])OP(=O)(O)OC[C@H]3O[C@@H](n4c(-c5ccco5)nc5c(N)ncnc54)[C@H](O)[C@@H]3O)[C@@H](O)[C@H]2O)c1
From the recorded data, which exceeds the other in inhibition: P or Q ? Refer to your chosen item by its label in the answer.
Q
